// provenance: patent US20120237528A1

Tested system: T1, recombinant extracellular domain (ECD) of human TF, amino acid 1-219 of the mature chain, C-terminal His6-tag (human, UniProt P13726 33-251)
T1 construct: expressed in a mammalian system; used for ELISA and Biacore; biotinylated by NHS-ester for the Fab ELISA; also called His6-TF-ECD1-219; HumanTF1-219
Experiment notes: Biacore
In this section we review reported kon values for a set of binders.
Measured endpoint: kon (M⁻¹ s⁻¹)

M1591 (antibody, V domains shown, complete MAb; FR4 is its own entry; also called H122/L3) VH: EVQLVQSGAEVKKPGESLRISCKGSGYTFRPYWIEWVRQMPGKGLEWMGDIIPGTGYTNYSPSFQGHVTISADKSISTAYLQWSSLKASDTAMYYCARSGYYGNSGFAYWGQGTLVTVSS VL: DIVMTQTPLSLPVTPGEPASISCKSSQSLLSSGNQKNYLTWYLQKPGQSPQLLIYWASTRESGVPDRFSGSGSGTDFTLKISRVEAEDVGVYYCQNDYTYPLTFGQGTKLEIK :: 134000
M16 (antibody, V domains shown, complete MAb; FR4 is its own entry; also called H16/L2) VH: QVQLVQSGAEVKKPGASVKVSCKASGYTFITYWIEWVRQAPGQGLEWMGDILPGSGSTNYNENFKGRVTMTRDTSTSTVYMELSSLRSEDTAVYYCARSGYYGNSGFAYWGQGTLVTVSS VL: DIVMTQSPDSLAVSLGERATINCKSSQSLLSSGNQKNYLTWYQQKPGQPPKLLIYWASTRESGVPDRFSGSGSGTDFTLTISSLQAEDVAVYYCQNDYTYPLTFGQGTKLEIK :: 102000
